Reference source: ChEMBL document CHEMBL1201862

System: SNB-19
Procedure Details: NCI tumour cell line growth inhibition, 48 h
The source made the active and inactive calls. Cut-off read from the data, not from the text of the source: active = GI50 up to about 1.1 µM and inactive = higher.
Measured Property: GI50

Dear colleague, I am looking for the recorded GI50 of the following compound: CN(C)CCNC(=O)c1cccc2c1nc(-c1cccnc1)c1ccccc12 7.05 µM (inactive)

Which measured GI50 value corresponds to C=CCCCCC1CCC2CCC(CCCCC=C)N12 (stereo not drawn) ? 19 µM (inactive)

Returns the measured GI50 for the input compound. Input: CCCCCCCCCCCCCCCCP(=O)([O-])OCC[N+](C)(C)C 30 µM (inactive)

Consider the compound CC1(Cl)CC(C)(/C=C/Cl)C(Cl)CC1Cl (stereo not drawn) and give its measured GI50. 17.4 µM (inactive)

For the compound shown here, Cc1ccc(/C=C2\CCCC\C2=N\O)cc1 , give the reported GI50. 53 µM (inactive)

What GI50 value was documented for this compound, COc1ccc2cc(C(C)C(=O)N3CCOC3=O)ccc2c1 (stereo not drawn) ? > 100 µM (inactive)

Requested field: GI50. Item: CC1CCC2C(C(=O)O[C@H]3C4CCO[C@@H](OC5OC(CO)C(O)C(O)C5O)C4[C@@]4(CO)O[C@@H]34)=CO[C@@H](OC3OC(CO)C(O)C(O)C3O)C12 (stereo partly drawn) > 10 µM (inactive)
